FYI, the data here is from ChEMBL document CHEMBL4513216.

- experimentalProtocol: Toxicity liver stage against HepG2, at 10uM
- Assay type: cell-based
- Parameters: test concentration 10 uM, cell line HepG2-A16-CD81EGFP
- experimentalConditions: human, HepG2-A16-CD81EGFP cells; read-out: INHIBITION
A collection of compounds and their measured cytotoxicity at 10 µM
Report only the number, with the unit % understood.

Use the examples below as a reference point.
compound	u	reported
CS(=O)(=O)N1C[C@H]2CCC[C@@]2(COc2ccccn2)C1	%	1.13
Cc1cnc2c(C(=O)N(C)Cc3cc(C4CC4)[nH]n3)cnn2c1	%	-5.71
Cc1nc(NCCC23CCCN2CCC3)cc(C2CCNCC2)n1	%	8.37
COC(=O)NCc1cc2n(n1)CCCN(C(C)=O)C2	%	-2.26
CNC(=O)[C@@]12CCC3(CCN(S(C)(=O)=O)CC3)[C@@H]1CN(C(C)=O)C2	%	-2.07
Cc1cc(C)nc(N2CCC(c3c(C(N)=O)sc4ccccc34)C2)n1 (stereo unspecified)	%	8.78
CC(CS(C)(=O)=O)N(C(=O)Nc1ccc(F)cc1F)C1CC1 (stereo unspecified)	%	4.08
Cc1noc(C)c1CN1CCCC2(CCN(CC3CCCC3)C2)C1 (stereo unspecified)	%	-4.1

// field: cytotoxicity at 10 µM; key: COc1cc(CNCCNC(=O)c2ccc(O)cc2)ccc1SC ; value = 9.72

cytotoxicity at 10 µM for CCN1CCCN(S(=O)(=O)c2cnc3onc(C)c3c2)CC1 is 4.62

In plain terms, COc1ccccc1CN1C(=O)O[C@@H]2CN(Cc3cccc(C)n3)C[C@@H]21 has a documented cytotoxicity at 10 µM of 2.64

Input CCn1cnnc1C1CCN(C(=O)COc2ccc(Cl)cc2)CC1 . Output cytotoxicity at 10 µM: -3.39

Sure, the documented cytotoxicity at 10 µM for Cc1cc(CN(C)Cc2ncc(-c3cccs3)o2)no1 is 11

Given item CC(C)Oc1ccccc1C1CC(=O)Nc2nc(N3CCOCC3)sc21 (stereo unspecified) , the value recorded as its cytotoxicity at 10 µM is 14.3

Recorded result, CCCc1n[nH]c(C2CN(C(=O)CCn3nc(C)cc3C)CCO2)n1 (stereo unspecified) , cytotoxicity at 10 µM: -11.9

Entry Cc1noc(C(C)C)c1C(=O)NCCC(=O)N1CCCCC1 — recorded cytotoxicity at 10 µM = 0.632

Form: compound = CN1CC(c2ccccc2)C2(CCN(C(=O)c3ccc[nH]3)CC2)C1=O (stereo unspecified) ; cytotoxicity at 10 µM = 9.25

cytotoxicity at 10 µM measured on CCS(=O)(=O)N1CCC2(CC(=O)N(c3ccccc3C)C2)C1 (stereo unspecified) = 2.82

For Cc1cc(CN2CC[C@H]3C[C@H](C(=O)N(C)C)O[C@@H]3C2)no1 the compound record lists cytotoxicity at 10 µM as -5.53

Looking up O=S(=O)(c1cccs1)N1CC[C@H]2[C@H]1CCN2c1ncccn1 , I see its cytotoxicity at 10 µM listed as -0.861

----------
- experimentalProtocol: Toxicity liver stage against HepG2, at 10uM
- Format: cell-based
- Design: test concentration 10 uM, cell line HepG2-A16-CD81EGFP
- experimentalConditions: human, HepG2-A16-CD81EGFP cells; read-out: INHIBITION
Recorded measurements of cytotoxicity at 10 µM, one per entry
# number only, unit % dropped from output

Reference set, count: 4
compound	u	cytotoxicity at 10 µM
CC(C)C(=O)N1CCC2(CC1)NC(=O)[C@H]1CN(Cc3cccnc3)C[C@H]12	%	-0.331
Cc1nc(N2CCCN(C(=O)c3ccsc3)CC2)c2cnn(C)c2n1	%	-10.8
Cn1ccnc1CCNS(=O)(=O)Cc1cccc(C#N)c1	%	0.867
CNc1[nH]nc(N)c1NC(=O)c1ccccc1	%	9.96

The compound listed as CCCN1CCC(c2nc3ccc(C)cn3n2)CC1 shows cytotoxicity at 10 µM equal to -118

Note to self: cytotoxicity at 10 µM recorded for O=C(CC1CC1)N1CCN(Cc2cccnc2)c2ncccc2C1 was 5.15

Sample CCCn1ccnc1CN1CCCC(O)(CN2CCCC2)C1 (centres undefined) ; cytotoxicity at 10 µM observed: -2.69

CCN1CCCC12CCN(C(=O)c1nccn1C)CC2 has a reported cytotoxicity at 10 µM of 7.89

Short answer for COc1ccc2c(c1)CC(NCc1cccc(OCC(N)=O)c1)CC2 (centres undefined) : cytotoxicity at 10 µM was -40.4

----------
- experimentalProtocol: Toxicity liver stage against HepG2, at 10uM
- Format: cell-based
- Design: test concentration 10 uM, cell line HepG2-A16-CD81EGFP
- experimentalConditions: human, HepG2-A16-CD81EGFP cells; read-out: INHIBITION
Catalogue of cytotoxicity at 10 µM values
All answers are understood in %, so give the number only.

Recorded results for 5 molecules are shown here.
molecule	cytotoxicity at 10 µM (%)
O=C(C1CN(CC2CC2)CC12CCOCC2)N1CCOCC1 (stereo unspecified)	6.07
COCC(C)N1CCc2onc(-c3ccc(F)c(F)c3)c2C1 (stereo unspecified)	-4.31
NC(=O)c1nc2c(s1)CCN(C(=O)Nc1ccccc1)CC2	12.5
N#CC1(NC(=O)c2nccc3ccccc23)CCSCC1	8.8
Cc1cc(=O)[nH]c(NC2CCN(S(=O)(=O)c3ccccc3)CC2)n1	-3.02

Kindly review the next molecule as well.
Input C[C@@H]1CN(CCC(=O)N(C)Cc2ccccc2)C[C@@]1(O)C1CCC1 . Output cytotoxicity at 10 µM: -6.95

----------
Documented cytotoxicity at 10 µM across a set of compounds
- experimentalProtocol: Toxicity liver stage against HepG2, at 10uM
- Format: cell-based
- Set-up: test concentration 10 uM, cell line HepG2-A16-CD81EGFP
- experimentalConditions: human, HepG2-A16-CD81EGFP cells; read-out: INHIBITION
Answer with a number only, understood to be in %.

compound	reported
CCOCCN1CCn2c(C)nnc2C1	3.34
O=C(C1CCOCC1)N1C[C@H]2CCC[C@@]2(COCc2ccccn2)C1	-112
O=C(CCc1nc(Cl)n[nH]1)N1C[C@@H](CN2CCCCC2)[C@@H](CO)C1	-0.104
CCCNC(=O)NC(=O)CN1CCN(Cc2nccn2CC)CC1	-14.3

The compound listed as O=C(CC1CC1)N1CC[C@@H]2[C@H](CC1)N(Cc1cccnc1)CCS2(=O)=O shows cytotoxicity at 10 µM equal to 5.96

The compound listed as Cc1noc(C)c1-c1cncc(C2CCCN2Cc2ncccc2F)n1 (stereo unspecified) shows cytotoxicity at 10 µM equal to 7.84

Lab note: measured cytotoxicity at 10 µM of COC(=O)[C@H](C)NC(=O)CSCc1nc2sc(C(C)C)cc2c(=O)[nH]1 was 2.87

For this compound ( CCc1noc(C)c1C(=O)NCC(c1ccc(C)cc1)N(C)C (stereo unspecified) ), measured cytotoxicity at 10 µM is -5.57

Record summary for COCCOCC(=O)Nc1ccc(Br)cc1F : reported cytotoxicity at 10 µM = -10.5

So, Cc1noc(C)c1CN1CCC(NC(=O)OC(C)(C)C)CC1 ? Its cytotoxicity at 10 µM was 6.27

----------
- experimentalProtocol: Toxicity liver stage against HepG2, at 10uM
- Type: cell-based
- Set-up: test concentration 10 uM, cell line HepG2-A16-CD81EGFP
- experimentalConditions: human, HepG2-A16-CD81EGFP cells; read-out: INHIBITION
assayMetric: cytotoxicity at 10 µM (%)
Field format: number, assumed %, no unit text.

// worked examples, cytotoxicity at 10 µM included
molecule	reported
CS(=O)(=O)c1ccc(NC(=O)NCc2ccc(F)cc2)cn1	15.4
CN(C)C(=O)CN1CCCC1c1nc(N)ncc1-c1ccc(F)cc1 (stereo unspecified)	-8.94
Nc1cc(N2CCCC(COc3ccc(F)cc3)C2)nc(N)n1 (stereo unspecified)	-7.58
Nc1nnc(Cn2nnc(-c3ccccc3F)n2)s1	3.09

Reported cytotoxicity at 10 µM for CCC1=NN2C(=N)C(=Cc3cccn3-c3cccc(Cl)c3)C(=O)N=C2S1 was -5.7

Record CC(C)c1ccc(S(=O)(=O)NC2(CC(N)=O)CCC2)cc1 , field cytotoxicity at 10 µM: -2.77

----------
Below, each entry is listed with its recorded cytotoxicity at 10 µM.
- experimentalProtocol: Toxicity liver stage against HepG2, at 10uM
- Type: cell-based
- Parameters: test concentration 10 uM, cell line HepG2-A16-CD81EGFP
- experimentalConditions: human, HepG2-A16-CD81EGFP cells; read-out: INHIBITION
Numeric answer only, unit % assumed.

Example results:
molecule	u	cytotoxicity at 10 µM
O=c1[nH]nc(CNc2ncc(Br)cn2)[nH]1	%	-5.12
Cc1ccc(CN(CCCN2CCOCC2)Cc2cnc(C)n2C)o1	%	-24
O=C1CC(c2ccc(F)cc2)c2cnn(C3CCCC3)c2N1 (centres undefined)	%	3.82

Kindly note the recorded cytotoxicity at 10 µM for CC(C)(C)C(=O)NCCC(=O)NC(C)(C)c1ccc2c(c1)OCO2 , which is -1.26

Recorded cytotoxicity at 10 µM (molecule Cc1cccc(CN2CCN(C(=O)N(C)C)[C@@H]3CS(=O)(=O)C[C@@H]32)n1 ): 0.00559

Summary for this molecule, Cc1nn(C)c(C)c1CN(C(=O)c1cc(Cl)c[nH]c1=O)C(C)C : cytotoxicity at 10 µM is -3.25

Reported cytotoxicity at 10 µM for CN1CC2(CCN(C(=O)Cn3ncc4ccccc4c3=O)CC2)OC1=O was -2.96

The molecule identified as Cc1csc(N2CCCN(C(=O)c3cnns3)CC2)n1 registered its cytotoxicity at 10 µM at 5.92

// cytotoxicity at 10 µM value for Nc1ncccc1CN1C[C@H]2OC(=O)N(Cc3ccccn3)[C@H]2C1 : 13.9
